# test.system: UniProt:Q84TH5
# Sequence (Q84TH5 whole entry): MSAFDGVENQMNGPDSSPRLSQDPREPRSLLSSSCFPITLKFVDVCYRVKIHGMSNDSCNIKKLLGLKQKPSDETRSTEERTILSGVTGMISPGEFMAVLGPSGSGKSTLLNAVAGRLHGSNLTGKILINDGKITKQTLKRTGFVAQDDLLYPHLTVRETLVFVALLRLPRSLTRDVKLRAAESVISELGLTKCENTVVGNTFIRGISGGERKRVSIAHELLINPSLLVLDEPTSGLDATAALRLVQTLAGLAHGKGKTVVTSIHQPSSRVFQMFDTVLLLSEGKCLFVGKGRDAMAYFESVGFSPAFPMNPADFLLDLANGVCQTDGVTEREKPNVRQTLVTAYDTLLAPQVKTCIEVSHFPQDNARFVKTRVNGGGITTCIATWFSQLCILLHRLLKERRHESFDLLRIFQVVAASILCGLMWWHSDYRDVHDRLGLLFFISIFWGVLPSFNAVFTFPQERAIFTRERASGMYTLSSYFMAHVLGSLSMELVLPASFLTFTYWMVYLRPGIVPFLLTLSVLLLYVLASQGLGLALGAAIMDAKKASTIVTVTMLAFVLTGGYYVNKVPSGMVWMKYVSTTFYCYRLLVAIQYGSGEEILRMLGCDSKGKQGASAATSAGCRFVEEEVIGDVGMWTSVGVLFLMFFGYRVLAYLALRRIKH
# assay.details: stimulation of ATPase activity (colorimetric Pi release), allosteric sigmoidal fit
quantity.measured: pEC50
Reminder that pEC50 is minus the log10 of a molar concentration.

Lab note: CC1=CC(=O)CC(C)(C)[C@@]1(O)/C=C/C(C)=C/C(=O)O [ABA, (S)-(+)-Abscisic acid] gave pEC50 of 6.17
